Measured values drawn from PubChem BioAssay (NCATS) for this set.

Target: Aldehyde dehydrogenase, mitochondrial (Homo sapiens)
Assay: qHTS for Inhibitors of the Aldehyde Dehydrogenase Family (ALDH2) Primary screen (AID 2061308);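 further: plate controls were vehicle for no effect and reference inhibitor for full effect; nearly all actives have a fitted effect of over 55% in size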
Conditions: ALDH2 enzyme inhibition qHTS, 1536-well; series mostly up to 56 µM
Results filed as inconclusive are left out. Active and inactive are the calls of the source. The call rests on the fitted dose curve; in most records, active means well fitted inhibition curve with a large enough effect; inconclusive means small, poorly fitted or top-dose-only effect; inactive means flat fitted curve, though single readings scatter.
endpoint name: outcome

[[record]]
compound = "CCOC(=O)c1[nH]c2c(c1C)C(=O)CCC2"
endpoint_name = "outcome"
measurement = "inactive"

[[record]]
compound = "COc1ccccc1NS(=O)(=O)c1ccc2c(c1)CCC(=O)N2"
endpoint_name = "outcome"
measurement = "inactive"

[[record]]
compound = "NC(=O)c1ccccc1C[C@H](C(=O)O)N1C(=O)c2ccc(C(=O)O)cc2C1=O"
endpoint_name = "outcome"
measurement = "inactive"

[[record]]
compound = "COc1ccc(C2Nc3cccc(OC)c3C(=O)N2Cc2ccco2)cc1COc1c(C)cc(NC(C)=O)cc1C (stereo not given)"
endpoint_name = "outcome"
measurement = "inactive"

[[record]]
compound = "Cc1ccc(C2Nc3cccc4cccc(c34)N2)cc1"
endpoint_name = "outcome"
measurement = "inactive"

[[record]]
compound = "CC(C)(C)OC(=O)Cc1nnc(C(C(=O)OCc2ccccc2)c2ccccc2)o1 (stereo not given)"
endpoint_name = "outcome"
measurement = "inactive"

[[record]]
compound = "O=C(Nc1ccc(S(=O)(=O)Nc2nccs2)cc1)c1ccncc1"
endpoint_name = "outcome"
measurement = "inactive"

[[record]]
compound = "C=CCNc1oc(-c2cccc(F)c2)nc1C#N"
endpoint_name = "outcome"
measurement = "inactive"

[[record]]
compound = "Cc1cc(C)nc(NC(=S)N2CCN(c3ccc4nncn4c3)CC2)c1"
endpoint_name = "outcome"
measurement = "inactive"

[[record]]
compound = "O=S(=O)(c1ccc(C(F)(F)F)cc1)N1CCN(S(=O)(=O)c2ccc3c(c2)OCCO3)CC1"
endpoint_name = "outcome"
measurement = "inactive"

[[record]]
compound = "COc1cccc(N2C(=O)c3ccccc3C2=O)n1"
endpoint_name = "outcome"
measurement = "inactive"

[[record]]
compound = "Cc1ccc(-c2cc(C(=O)Nc3ccncc3)c3ccccc3n2)cc1C"
endpoint_name = "outcome"
measurement = "inactive"

[[record]]
compound = "Cc1ccc(NC(=O)CN2C(=O)N/C(=C\\c3cccn3-c3ccc(C(=O)O)cc3)C2=O)cc1"
endpoint_name = "outcome"
measurement = "inactive"

[[record]]
compound = "COc1cc(O)c(C(CC(=O)N2CCCC(C(F)(F)F)C2)c2ccc3c(c2)OCO3)c(OC)c1 (stereo not given)"
endpoint_name = "outcome"
measurement = "inactive"

[[record]]
compound = "CC(C)(C)OC(=O)Cc1nnc(C(C(=O)OCc2ccccc2)c2ccccc2)s1 (stereo not given)"
endpoint_name = "outcome"
measurement = "inactive"


###

Experiment: BET inhibitor-based combinations targeting novel dependencies in MECOM-rearranged (r) AML: AML-191 cell line (AID 2202236; further: nearly all actives have a fitted effect of over 35% in size)
Conditions: AML-191 viability, CellTiter-Glo luminescence, 48 h; series mostly up to 46 µM
Results filed as inconclusive are left out. Activity calls are given as the source filed them. The call rests on the fitted dose curve; in most records, active means well fitted inhibition curve with a large enough effect; inconclusive means small, poorly fitted or top-dose-only effect; inactive means flat fitted curve, though single readings scatter.
Outcomes: 1 (active), -1 (inactive)

[[record]]
molecule = "COCCOc1cnc2ccn([C@H](C)c3nnc4c(F)cc(-c5cnn(C)c5)cn34)c(=O)c2c1"
label_value = -1

[[record]]
molecule = "C=CC(=O)Nc1cccc(Oc2nc(Nc3ccc(N4CCN(C)CC4)c(F)c3)nc3[nH]ccc23)c1"
label_value = 1

[[record]]
molecule = "NC(=O)c1cccc2c(NC(CN3CCC3)c3ccc(Cl)c(C(F)(F)F)c3)ncnc12 (configuration not stated)"
label_value = 1

[[record]]
molecule = "OC1CCC(Oc2cccc3cnc(Nc4ccc5nc[nH]c5c4)nc23)CC1 (configuration not stated)"
label_value = 1

[[record]]
molecule = "COc1cc(N2CCN(C)CC2)ccc1Nc1ncc2c(n1)N(C)c1ccccc1C(=O)N2"
label_value = 1

[[record]]
molecule = "COc1ccc(S(=O)(=O)NCc2ccc(C(=O)NCCc3ccc(Cl)cn3)cc2)cc1"
label_value = -1

[[record]]
molecule = "Cc1cc(CN2CCN(c3c(Br)cnc4nc(-c5ccc(N6CCN(C)CC6)cc5)[nH]c34)CC2)no1"
label_value = 1

[[record]]
molecule = "COc1cccc2c1C(=O)c1c(O)c3c(c(O)c1C2=O)C[C@@](O)(/C(CO)=N/NC(=O)CCCCCN1C(=O)C=CC1=O)C[C@@H]3O[C@H]1C[C@H](N)[C@H](O)[C@H](C)O1"
label_value = 1

[[record]]
molecule = "O=C1NC(=O)[C@@H](c2cn3c4c(cccc24)CCC3)[C@@H]1c1c[nH]c2ccccc12"
label_value = 1

[[record]]
molecule = "COC[C@@H](c1ccc(C(F)(F)F)cc1)N1CCN(C2(C)CCN(C(=O)c3c(C)ncnc3C)CC2)C[C@@H]1C"
label_value = -1

[[record]]
molecule = "CC(C)c1c(-c2ccccc2)nc2c(C#N)c[nH]n2c1=O"
label_value = -1

[[record]]
molecule = "COC(=O)[C@H]1[C@@H](O)[C@@]2(O)c3c(OC)cc(O[C@@H]4O[C@@H]([C@@H](O)CO)CO[C@H]4OC)cc3O[C@@]2(c2ccc(OC)cc2)[C@@H]1c1ccccc1"
label_value = -1

[[record]]
molecule = "O=C(C[C@@H]1C/C=C\\CCC(=O)O[C@H](c2ccccc2)CNC1=O)NCc1ccc(Cl)cc1"
label_value = -1

[[record]]
molecule = "CNC1CCCN(c2c(F)cc3c(=O)c(C(=O)O)cn(C4CC4)c3c2OC)C1 (configuration not stated)"
label_value = -1

[[record]]
molecule = "Cc1c(-c2c(-c3ccc(F)o3)sc3ncnc(O[C@@H](Cc4ccccc4OCc4ccnn4CC(F)(F)F)C(=O)O)c23)ccc(OCCN2CCN(C)CC2)c1Cl"
label_value = 1

[[record]]
molecule = "C[C@H]1O[C@@H](O[C@H]2[C@@H](O)C[C@H](O[C@H]3[C@@H](O)C[C@H](O[C@H]4CC[C@@]5(C)[C@H](CC[C@@H]6[C@@H]5C[C@@H](O)[C@]5(C)[C@@H](C7=CC(=O)OC7)CC[C@]65O)C4)O[C@@H]3C)O[C@@H]2C)C[C@H](O)[C@@H]1O"
label_value = 1

[[record]]
molecule = "NC[C@H]1O[C@H](O[C@H]2[C@H](O)[C@@H](O[C@H]3O[C@H](CO)[C@@H](O)[C@H](N)[C@H]3O)[C@H](N)C[C@@H]2N)[C@H](N)C[C@@H]1O"
label_value = -1

[[record]]
molecule = "CC1(C)OC2=C(C(=O)c3ccccc3C2=O)[C@H](NCc2ccccc2)[C@@H]1O"
label_value = 1

[[record]]
molecule = "Clc1ccc(-c2nc3sccn3c2/C=N/OCc2ccc(Cl)c(Cl)c2)cc1"
label_value = -1

[[record]]
molecule = "N=C(N)c1ccc(OCCCCCOc2ccc(C(=N)N)cc2)cc1"
label_value = 1

[[record]]
molecule = "Clc1cccc(-c2ccc(-c3nnc(CCCc4ccc5cccnc5n4)o3)cc2)c1"
label_value = -1

[[record]]
molecule = "CN(C)N=Nc1nc[nH]c1C(N)=O"
label_value = 1

